Assay: self-splicing fitness, log relative to wild type (ln ratio); higher = more splicing; Tetrahymena group I intron in knt gene, E. coli kanamycin selection, DiMSum; sequences stand for … in CUCUCU…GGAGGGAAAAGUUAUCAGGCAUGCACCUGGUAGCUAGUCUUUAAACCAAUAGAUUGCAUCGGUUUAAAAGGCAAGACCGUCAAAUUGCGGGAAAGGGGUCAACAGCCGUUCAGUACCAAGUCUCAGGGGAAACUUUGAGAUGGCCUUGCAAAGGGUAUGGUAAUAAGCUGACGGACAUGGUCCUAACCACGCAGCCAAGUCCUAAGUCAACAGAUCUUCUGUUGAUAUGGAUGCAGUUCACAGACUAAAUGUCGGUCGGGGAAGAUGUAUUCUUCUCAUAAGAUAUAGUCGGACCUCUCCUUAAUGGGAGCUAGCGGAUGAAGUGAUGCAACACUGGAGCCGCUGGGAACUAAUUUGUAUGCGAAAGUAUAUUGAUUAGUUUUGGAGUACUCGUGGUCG;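 also: selection with 25 µg/mL kanamycin versus none on LB agar overnight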
Settings: 30 °C
Lab note: anything with self-splicing fitness (ln) at or over -2 counts as condition met; the rest go in condition not met.

> print(dat)
           residue.codes              class
 1  CAUUAGCAAUAUUACGUAGC  condition not met
 2  UGAAAGCAAUAUUACGUGCU  condition not met
 3  GGAGAGCAAUAUUACGGCCA  condition not met
 4  CCCGAGCAAUAUUACGAUAA      condition met
 5  AUGAAGCAAUAUUACGUCGG      condition met
 6  CGGCAGCAAUAUUACGAGCG      condition met
 7  AUUGAGCAAUAUUACGCCUC  condition not met
 8  AUGUAGCAAUAUUACGGGGG  condition not met
 9  GCUGAGCAAUAUUACGUUCC      condition met
10  ACCUAGCAAUAUUACGAAGC      condition met
11  GCUUAGCAAUAUUACGUCAG  condition not met
12  GAUUAGCAAUAUUACGUGGA  condition not met
13  CCAAAGCAAUAUUACGAUUC  condition not met
14  AUAGAGCAAUAUUACGUGCA      condition met
15  GAAAAGCAAUAUUACGGGCG      condition met
16  AGCCAGCAAUAUUACGGCCG      condition met
17  GGUUAGCAAUAUUACGAACA      condition met
18  AGACAGCAAUAUUACGCGGG  condition not met
19  UCGGAGCAAUAUUACGAGCC  condition not met
20  CCGAAGCAAUAUUACGCUCG      condition met
21  GACCAGCAAUAUUACGGGCA      condition met
22  ACCCAGCAAUAUUACGCUCG  condition not met
23  CAUAAGCAAUAUUACGCAAU  condition not met
24  UUGAAGCAAUAUUACGAGCA      condition met
25  GAGCAGCAAUAUUACGGUAC  condition not met
26  UGCCAGCAAUAUUACGGUCC      condition met
27  GUGCAGCAAUAUUACGGAAG  condition not met
28  GGACAGCAAUAUUACGCAGG      condition met
29  CUGGAGCAAUAUUACGAGUU  condition not met
30  CCCAAGCAAUAUUACGAAGG  condition not met
31  CAUAAGCAAUAUUACGUCAG      condition met
32  CACGAGCAAUAUUACGUGGU  condition not met
33  GUUCAGCAAUAUUACGGUCC      condition met

src = the supplement of paper PMC7877785
